In this section, each of the compounds is paired with its reported IC50.
- Tested on: SKBR3 (PI3Kα-Wild Type) cell line
- test-details: HTRF phospho-AKT(S473) cell assay in SKBR3 cells
- Format: cell-based, human
- particulars: Homo sapiens, SK-BR-3; HTRF phospho-AKT(S473), SKBR3 (PI3Kα-Wild Type) cells, 2 hours compound incubation, PDGF-BB stimulated

Illustrative cases are given below, each with its answer.
Reported IC50 for COc1ccc(N2C[C@H]3C[C@@H]2CN3c2nc3c([C@@H](C)Nc4ccc(Cl)nc4C(=O)NS(C)(=O)=O)cc(C)cc3c(=O)n2C)cn1 [Compound 638] was ≥ 5 µM

Reported IC50 for Cc1cc([C@@H](C)Nc2ccc(Cl)nc2C(=O)NS(C)(=O)=O)c2nc(N3CCC(n4cc(C(F)(F)F)cn4)CC3)n(C)c(=O)c2c1 [Compound 681] was ≥ 5 µM

New cases:
Reported IC50 for CCn1c(N2Cc3cnn(CC(F)(F)F)c3C2)nc2c([C@@H](C)Nc3ccc(Cl)nc3C(=O)NS(C)(=O)=O)cc(C)cc2c1=O [Compound 733] was 1 to 5 µM

Reported IC50 for COc1nccc(N2C[C@@H]3C[C@H]2CN3c2nc3c([C@@H](C)Nc4ccc(Cl)nc4C(=O)NS(C)(=O)=O)cc(C)cc3c(=O)n2C)n1 [Compound 581] was ≥ 5 µM

Reported IC50 for Cc1cc([C@@H](C)Nc2ccc(Cl)nc2C(=O)NS(C)(=O)=O)c2nc(-c3ccn(-c4ccn(C)n4)c(=O)c3)n(C)c(=O)c2c1 [Compound 807] was ≥ 5 µM

Taken from patent US12281122B1.
